TEST_PROTOCOL: Rat pharmacokinetics
Format: in vivo
Parameters: concentration or dose not given beside the values
EXPERIMENTAL_CONTEXT: plasma, po, read-out: AUCINF—obs
Experimental: A1 10 μL of a plasma sample was taken in a centrifuge tube and 100 μL of methanol:acetonitrile (1:1, v/v) was added, vortexed for 1 min, centrifugated (14000 rpm) for 5 min, and 50 μL supernatant was taken, mixed with equal volume of water, and analysised after vortex mixing. The linear range of A1 is: 0.1-300 ng/mL for oral administration and 1-3000 ng/mL for intravenous injection. […]
MEASUREMENT_KIND: AUC(0-inf)
Please answer using a numeric value trailed by its unit.

Any idea what its AUC(0-inf) is? The molecule is COc1ccc2c(c1)c1c(n2CO)CN2CCc3cc(OCc4ccccc4)c(OC)cc3C2C1 (stereo not shown) 335 ng·h/mL

====

TEST_PROTOCOL: Rat pharmacokinetics
Format: in vivo
EXPERIMENTAL_CONTEXT: plasma, iv, read-out: CL—obs (converted)
MEASUREMENT_KIND: clearance (mL/min/kg)
Give bare numbers, in mL/min/kg.

COc1ccc2c(c1)c1c(n2CO)CN2CCc3cc(OCc4ccccc4)c(OC)cc3C2C1 (centres unmarked)
61

Now for a further compound.
Any idea what its clearance is? The compound is COc1ccc2c(c1)c1c(n2CO)CN2CCc3cc(OC)c(OCc4ccccc4)cc3C2C1 (centres unmarked) 84.2

====

TEST_PROTOCOL: Rat pharmacokinetics
Type: in vivo
EXPERIMENTAL_CONTEXT: plasma, po
MEASUREMENT_KIND: Cmax

COc1ccc2c(c1)c1c(n2CO)CN2CCc3cc(OC)c(OCc4ccccc4)cc3C2C1 (centres unmarked)
0.159 µg/mL

Now for a further compound.
Any idea what its Cmax is? The compound is COc1ccc2c(c1)c1c(n2CO)CN2CCc3cc(OCc4ccccc4)c(OC)cc3C2C1 (centres unmarked) 0.062 µg/mL

====

TEST_PROTOCOL: Rat pharmacokinetics
Type: in vivo
EXPERIMENTAL_CONTEXT: plasma, po
Protocol: A1 10 μL of a plasma sample was taken in a centrifuge tube and 100 μL of methanol:acetonitrile (1:1, v/v) was added, vortexed for 1 min, centrifugated (14000 rpm) for 5 min, and 50 μL supernatant was taken, mixed with equal volume of water, and analysised after vortex mixing. The linear range of A1 is: 0.1-300 ng/mL for oral administration and 1-3000 ng/mL for intravenous injection. […]
MEASUREMENT_KIND: half-life (min)
One number for each entry, in min.

Any idea what its half-life is? The molecule is COc1ccc2c(c1)c1c(n2CO)CN2CCc3cc(OCc4ccccc4)c(OC)cc3C2C1 (stereo not shown) [Example A55] 42.6

====

TEST_PROTOCOL: Rat pharmacokinetics
Type: in vivo
EXPERIMENTAL_CONTEXT: plasma, iv, read-out: Vss—obs
Answer each item with its documented Vd.
Give bare numbers, in L/kg.

COc1ccc2c(c1)c1c(n2CO)CN2CCc3cc(OCc4ccccc4)c(OC)cc3C2C1 (centres unmarked)
6.41

Now for a further molecule.
Any idea what its Vd is? The molecule is COc1ccc2c(c1)c1c(n2CO)CN2CCc3cc(OC)c(OCc4ccccc4)cc3C2C1 (centres unmarked) 16.6

====

System: Syrian golden hamsters (high-fat diet, hyperlipidemia model)
TEST_PROTOCOL: In vivo lipid-lowering activity in high-fat diet golden hamsters
Parameters: species or system Syrian golden hamster
EXPERIMENTAL_CONTEXT: high-fat diet, oral (intragastric) 30 mg/kg once a day for three weeks, serum
Description: After adaptively feeding Syrian golden hamsters (male, 80-100 g) for a week, all hamsters were fed with high-fat diet. Two weeks later, blood was collected from the orbital venous plexus, serum was separated, and levels of total cholesterol (TC), triglyceride (TG), high-density lipoprotein (HDL-C) and low-density lipoprotein (LDL-C) in serum were measured. […] Blood lipid levels and body weights were measured every 10 days. […]
Answer each item with its documented HDL-C.
Numbers only, in mmol/L.

Record excerpt, results attached:
COc1ccc2[nH]c3c(c2c1)CC1c2cc(OCc4ccc(F)cc4)c(OC)cc2CCN1C3c1ccc(F)cc1 (stereo not shown)
3.99
COc1ccc2c(c1)c1c(n2CO)CN2CCc3cc(OC)c(OCc4ccccc4)cc3C2C1 (stereo not shown)
2.56
COc1ccc2c(c1)c1c(n2CO)CN2CCc3cc(OCc4ccccc4)c(OC)cc3C2C1 (stereo not shown)
3.88

Now for a further molecule.
Any idea what its HDL-C is? The molecule is COc1ccc2c(c1)c1c(n2CO)CN2CCc3cc(OC)c(OCc4ccc(F)cc4)cc3C2C1 (stereo not shown) 4.01
